- Test system: E. coli ATCC25922
- Test method notes: MIC susceptibility testing, broth microdilution in CaMHB
- Format: cell-based, Escherichia coli
- Condition description: Table 4A, different batches of cation-adjusted Muller-Hinton broth
Counter-ions that a name gives are not always drawn. *1 amine or outer side, *2 acyl side, *3 side chain or, on linkers, in order; H or OH if unused. Where a SMILES comes first, the peptide text is derived from it. Bridges are numbered along the chain shown (N, C = ends). [ ]: non-standard residue; d: D form. The star is where a group is joined. ξ: configuration not given here. Achc(trans-4) = O=C([C@H]1CC[C@H](N[*:1])CC1)[*:2]; NMeGABA = CN(CCCC(=O)[*:2])[*:1]; Butanoyl(3ξ-OH) = CC(O)CC(=O)*; Thr(3ξ) = CC(O)[C@H](N)C(=O)O; X5 = CC(C)[C@H](N)CCC(=O)*; Dab = NCC[C@H](N)C(=O)O; X1 = CCCCCCC(O)C(=O)*; GABA = NCCCC(=O)O
The following molecules are shown together with reported MIC values.

- Molecule: "CC(C)C[C@@H]1NC(=O)[C@@H](Cc2ccccc2)NC(=O)[C@H](CCN)NC(=O)[C@@H](NC(=O)[C@H](CCN)NC(=O)[C@@H](NC(=O)CC(C)O)C(C)O)CCNC(=O)[C@H](C(C)O)NC(=O)[C@H](CCN)NC(=O)[C@H](CCN)NC1=O (stereo partly drawn) [Example 22] ({Butanoyl(3ξ-OH)}-[Thr(3ξ)][Dab][Dab][Dab][dF]L[Dab][Dab][Thr(3ξ)]; lactam 3-C)"
  MIC [micrograms/mL]: 4
- Molecule: "CC(C)C[C@@H]1NC(=O)[C@@H](CC(C)C)NC(=O)[C@H](CCN)NC(=O)[C@@H](NC(=O)[C@H](CCN)NC(=O)[C@@H](NC(=O)CCCN)C(C)O)CCNC(=O)[C@H](C(C)O)NC(=O)[C@H](CCN)NC(=O)[C@H](CCN)NC1=O (stereo partly drawn) [Example 25, 4-aminobutanoyl polymyxin E nonapeptide] (H-[GABA][Thr(3ξ)][Dab][Dab][Dab][dL]L[Dab][Dab][Thr(3ξ)]; lactam 4-C)"
  MIC [micrograms/mL]: 8
- Molecule: "CCCCCCC(O)C(=O)N[C@H](C(=O)N[C@@H](CCN)C(=O)N[C@H]1CCNC(=O)[C@H](C(C)O)NC(=O)[C@H](CCN)NC(=O)[C@H](CCN)NC(=O)[C@H](CC(C)C)NC(=O)[C@@H](Cc2ccccc2)NC(=O)[C@H](CCN)NC1=O)C(C)O (stereo partly drawn) [Example 2, Sulphate Salt] (X1-[Thr(3ξ)][Dab][Dab][Dab][dF]L[Dab][Dab][Thr(3ξ)]; lactam 3-C)"
  MIC [micrograms/mL]: 2
- Molecule: "CC(C)C[C@@H]1NC(=O)[C@@H](Cc2ccccc2)NC(=O)[C@H](CCN)NC(=O)[C@@H](NC(=O)[C@H](CCN)NC(=O)[C@@H](NC(=O)[C@H]2CC[C@H](N)CC2)C(C)O)CCNC(=O)[C@H](C(C)O)NC(=O)[C@H](CCN)NC(=O)[C@H](CCN)NC1=O (stereo partly drawn) [Example 24] ({Achc(trans-4)}-[Thr(3ξ)][Dab][Dab][Dab][dF]L[Dab][Dab][Thr(3ξ)]; lactam 3-C)"
  MIC [micrograms/mL]: 2
- Molecule: "CC(C)C[C@@H]1NC(=O)[C@@H](Cc2ccccc2)NC(=O)[C@H](CCN)NC(=O)[C@@H](NC(=O)[C@H](CCN)NC(=O)[C@@H](NC(=O)CC[C@@H](N)C(C)C)C(C)O)CCNC(=O)[C@H](C(C)O)NC(=O)[C@H](CCN)NC(=O)[C@H](CCN)NC1=O (stereo partly drawn) [Example 29] (X5-[Thr(3ξ)][Dab][Dab][Dab][dF]L[Dab][Dab][Thr(3ξ)]; lactam 3-C)"
  MIC [micrograms/mL]: 8
- Molecule: "CNCCCC(=O)N[C@H](C(=O)N[C@@H](CCN)C(=O)N[C@H]1CCNC(=O)[C@H](C(C)O)NC(=O)[C@H](CCN)NC(=O)[C@H](CCN)NC(=O)[C@H](CC(C)C)NC(=O)[C@@H](Cc2ccccc2)NC(=O)[C@H](CCN)NC1=O)C(C)O (stereo partly drawn) [Example 23] (NMeGABA-[Thr(3ξ)][Dab][Dab][Dab][dF]L[Dab][Dab][Thr(3ξ)]; lactam 3-C)"
  MIC [micrograms/mL]: 0.5
